# assay_target: Aurora kinase B (Homo sapiens)
# Sequence (Q96GD4 whole entry): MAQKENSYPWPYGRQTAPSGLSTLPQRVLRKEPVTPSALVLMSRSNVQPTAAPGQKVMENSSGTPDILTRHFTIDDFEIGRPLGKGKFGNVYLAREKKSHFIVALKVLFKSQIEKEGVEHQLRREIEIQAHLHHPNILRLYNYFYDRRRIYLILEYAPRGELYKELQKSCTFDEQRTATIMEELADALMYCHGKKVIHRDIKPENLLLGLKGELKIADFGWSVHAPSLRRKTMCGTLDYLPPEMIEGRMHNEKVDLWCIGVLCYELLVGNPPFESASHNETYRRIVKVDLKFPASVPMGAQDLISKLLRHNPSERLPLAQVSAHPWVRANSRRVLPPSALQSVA
# assay_details: Inhibition of recombinant aurora B at 1 uM
measure_name: inhibition (%)

Record excerpt, results attached:
COc1ccc(-c2ccc3c(c2)/C(=C/c2[nH]c4c(c2CCC(=O)O)C(=O)CCC4)C(=O)N3)cc1OC : 5.1
CNS(=O)(=O)c1ccc2c(c1)/C(=C/c1[nH]c3c(c1CCC(=O)O)C(=O)CCC3)C(=O)N2 : 2.6
O=C(O)CCc1c(/C=C2\C(=O)Nc3ccc(F)cc32)[nH]c2c1C(=O)CCC2 : 11.6
O=C(O)CCc1c(/C=C2\C(=O)Nc3ccc([N+](=O)[O-])cc32)[nH]c2c1C(=O)CCC2 : 3.4
O=C(O)CCc1c(/C=C2\C(=O)Nc3ccc(S(=O)(=O)Cc4ccc(F)cc4)cc32)[nH]c2c1C(=O)CCC2 : 15.5

P. CC(=O)Nc1ccc2c(c1)/C(=C/c1[nH]c3c(c1CCC(=O)O)C(=O)CCC3)C(=O)N2
Q. O=C(O)CCc1c(/C=C2\C(=O)Nc3ccc(Br)cc32)[nH]c2c1C(=O)CCC2
Exam item: Pick one, P or Q : lowest reported inhibition. Give the label under which the chosen entry appears.
Marked response: Q
(Q: 6.8%, P: 12.8%)

a. O=C(O)CCc1c(/C=C2\C(=O)Nc3ccc(S(=O)(=O)Cc4ccccc4)cc32)[nH]c2c1C(=O)CCC2
b. CC1(C)CC(=O)c2c([nH]c(/C=C3\C(=O)Nc4ccc(F)cc43)c2CCC(=O)O)C1
c. CCOC(=O)CCc1c(/C=C2\C(=O)Nc3ccccc32)[nH]c2c1C(=O)CCC2
Exam item: Rank items: key inhibition, increasing. Answer format: list of labels, ordered as asked.
Marked response: c, a, b
(c: 2.3%, a: 11.2%, b: 17.3%)
